Examples of molecules with documented melting point follow.

Reference set, count: 5
MOLECULE	melting point
COCCOc1cc(NC(=O)OC(C)(C)C)c([N+](=O)[O-])cc1C#Cc1ccccc1	118 to 119 °C
COc1cc2ccccc2cc1NC(=O)N1CCN(c2cc(C)cc(C)c2)CC1	105 to 107 °C
CN(C(CCn1c(=O)cc(Cl)n(C)c1=O)C(=O)O)S(=O)(=O)c1ccc(Oc2ccccc2)cc1 (centres undefined)	115 to 117 °C
CCOC(=O)NC(=S)Nc1cc(Br)ccn1	107 to 110 °C
CN(C)C=C1CC(=O)Nc2ccccc2C1=O	203 to 205 °C

stdin: Entry `O=C(CC(CC(=O)c1ccc(F)cc1)c1cccc(-c2nnn[nH]2)c1)c1ccc(F)cc1` : reported melting point = ?
stdout: 162 °C

stdin: Entry `O=C1CCC(c2ccc3c(c2)NCCO3)=NN1` : reported melting point = ?
stdout: 198 to 199 °C

stdin: Entry `Cc1ccc(C(CCN(C(C)C)C(C)C)(CCN(C(C)C)C(C)C)C(N)=O)cc1` : reported melting point = ?
stdout: 97 to 100 °C

stdin: Entry `Cc1nn(-c2ccc(Br)cc2)cc1C(=O)N(CC(=O)O)c1ccc(OCC(C)(C)C)c(C#N)c1` : reported melting point = ?
stdout: 169 to 170 °C

---

Examples of compounds with documented melting point follow.

COMPOUND	melting point
CC1CN(c2nc(N)nc(-c3cc(Cl)ccc3Cl)n2)CC(C)O1 (stereo not drawn)	192 to 195 °C
CC(C)c1cc(C(C)C)c(OCC(=O)O)c(C(C)C)c1	105 to 108 °C
O=c1nc(-c2cccc(CSc3ccncc3)n2)sc2ccccc12	182 °C

stdin: Entry `CCNc1nc(C(C)C)nc(Cl)c1[N+](=O)[O-]` : reported melting point = ?
stdout: 50 °C

stdin: Entry `O=C(O)CCCOc1cccc(OCc2ccccc2)c1` : reported melting point = ?
stdout: 76 to 77 °C

stdin: Entry O=C1NC(=O)C(Cc2ccc(OC3=C(Cl)C(=O)c4ccccc4C3=O)cc2)S1 (stereo not drawn) : reported melting point = ?
stdout: 250 to 252 °C

stdin: Entry `O=C1c2ccccc2C(=O)N1OCc1ccc(F)c(Oc2ccccc2)c1` : reported melting point = ?
stdout: 88.2 °C

stdin: Entry `CC(=O)Oc1c(C(C)C)cc(-c2c3ccccc3cc3sc(C)c(C)c23)cc1C(C)C` : reported melting point = ?
stdout: 243 to 245 °C

---

Examples of compounds with documented melting point follow.

COMPOUND	melting point
O=C(NCCCCCCOC(=O)Oc1ccc([N+](=O)[O-])cc1)Oc1ccc(Oc2ccccc2)cc1	102 to 104 °C
CCN(CC)CCOC(=O)c1ccc2nc3n(c(=O)c2c1)C(C)CC3=Cc1ccccc1 (stereo not drawn)	125 to 130 °C
CC(C)(C)OC(=O)N[C@@H](Cc1ccc2ccccc2c1)C(=O)OCc1ccccc1	90 to 91 °C
Cc1[nH]c2ccccc2c1Cc1cccnc1	207 to 210 °C
CCc1cc(O)c2cccc(OC)c2n1	190 to 192 °C
NC(=O)c1c(Cl)c(-c2ccccc2)n2c1CN(C(=O)Oc1ccccc1)CC2	196 to 198 °C

stdin: Entry `O=S(=O)(Cl)c1cncc(Br)c1` : reported melting point = ?
stdout: 64 °C

stdin: Entry `O=C(N[C@@H]1CN2C(=O)N(c3cc(Cl)nc(Cl)c3)C(=O)[C@@]2(Cc2ccc(OC(F)(F)F)cc2)C1)c1ccncc1` : reported melting point = ?
stdout: 148 °C

stdin: Entry `Nc1nc2c(s1)CCN(CC=Cc1ccccc1)CC2` : reported melting point = ?
stdout: 120 to 124 °C

stdin: Entry CC(C)(C)OC(=O)NC1CCCOCC=CC2CC2(C(=O)NS(=O)(=O)C2CC2)NC(=O)C2CC(OC(=O)C3CCCCC3)CN2C1=O (stereo not drawn) : reported melting point = ?
stdout: 128 to 130 °C

stdin: Entry `Cn1nc(-c2c(Cl)cc(C(F)(F)F)cc2Cl)cc1N` : reported melting point = ?
stdout: 161 to 163 °C

stdin: Entry `CCOc1ccc(C=O)cc1CCl` : reported melting point = ?
stdout: 74.5 to 75.5 °C

stdin: Entry `CC(C)N1C(=O)c2cccnc2NS1(=O)=O` : reported melting point = ?
stdout: 190 °C

---

MEASUREMENT TYPE: melting point

COMPOUND	melting point
O=CNCC1CN(c2c(F)cc3c(=O)c(C(=O)O)cn(C4CC4)c3c2F)CCO1 (stereo not given)	210 to 213 °C
Cn1ncc2nn(-c3cccc(C(F)(F)F)c3)c(=O)c(Cl)c21	156 to 158 °C
CS(=O)(=O)N(CCc1ccccn1)CC(O)(Cn1cncn1)c1ccc(Cl)cc1Cl (stereo not given)	151 to 153 °C

stdin: Entry `Cc1[nH]c(=O)sc1C(=O)c1ccc(F)cc1` : reported melting point = ?
stdout: 209 to 210 °C

stdin: Entry `CCS(=O)(=O)CCC(=O)NNC(=O)N1Cc2ccccc2Oc2ccc(N)cc21` : reported melting point = ?
stdout: 172 to 179 °C

stdin: Entry `COc1cc2c(c3c1OC(C)(C)C3)C(c1ccn(-c3cc(C(N)=O)ccn3)c(=O)c1)=NC(C)(C)C2` : reported melting point = ?
stdout: 174 to 175 °C

stdin: Entry `O=c1[nH]c2cc([N+](=O)[O-])c(S(=O)(=O)c3cccc4cnccc34)cc2o1` : reported melting point = ?
stdout: > 270 °C

stdin: Entry Cc1c(C(=O)CS(=O)Cc2ccc(Cl)cc2)sc2ccc(Cl)cc12 (stereo not given) : reported melting point = ?
stdout: 168 to 170 °C

stdin: Entry `Cc1ccc(C(=O)c2ccc(Cc3c(Cl)cc([N+](=O)[O-])cc3Cl)cc2)cn1` : reported melting point = ?
stdout: 121 to 123 °C

stdin: Entry `c1cc2c3c(cccc3c1)C(NCCCCCCCCCCCCn1ccnc1)=N2` : reported melting point = ?
stdout: 95 to 97 °C

---

Examples of compounds with documented melting point follow.

Reference set, count: 8
COMPOUND	melting point
CC(C)(C)OC(=O)N=C(NC(=O)OC(C)(C)C)Nc1ccc2c(c1)Cc1cc(NC(=NC(=O)OC(C)(C)C)NC(=O)OC(C)(C)C)ccc1-2	> 340 °C
COCc1c(-c2ccccc2)ncc2[nH]c3ccc(OCc4ccccc4)cc3c12	189 to 191 °C
CCn1c(=O)c2[nH]c(/C=C/c3ccc(-c4ccccc4)cc3)nc2n(CC)c1=O	> 270 °C
NC(=O)N1CC(Oc2cccc(C(F)(F)F)c2)C1	151 to 152 °C
CCCc1nncn1-c1ccc(O)cc1	176 °C
C=C(C)C(=O)OC1=CC(O)(C(C)=O)C(C(=O)O)C=C1 (configuration not stated)	153 °C
CC(C)(CO)c1ccc(C(=O)Nc2cn3cc(-n4ccnc4)ccc3n2)cc1	278 to 280 °C
COC(=O)c1ccc(C2CC(=O)NC2(CO)CO)c([N+](=O)[O-])c1 (configuration not stated)	144 to 145 °C

stdin: Entry COc1ccc(CC2c3cc(O)c(OC)cc3CCN2CC2CC2)cc1O (single isomer, unassigned; (+)) : reported melting point = ?
stdout: 70 to 81 °C

---

MEASUREMENT TYPE: melting point

MOLECULE	melting point
C#CCn1c(C(F)(F)F)cc2ccccc21	59 °C
O=C1C(CCO)Oc2ccccc2N1Cc1ccncc1 (centres undefined)	153 to 154 °C
CCOC(=O)c1c(C(C)(C)O)nc(SCC)n1Cc1ccc(-c2ccccc2-c2nnn[nH]2)cc1	185 to 188 °C
Cc1cc(=O)n2nc(C)n(N)c2n1	287 to 289 °C
CCNC(=O)c1c([Si](C)(C)C)ccc(C)c1Cl	120 to 122 °C

stdin: Entry `O=C(O)c1ccc(F)c(Oc2ccccc2)c1` : reported melting point = ?
stdout: 226 to 227 °C

stdin: Entry `Cc1nn(-c2ccc(F)cc2)cc1C(=O)Nc1ccc(CC(C)C)c(C#N)c1` : reported melting point = ?
stdout: 178 to 179 °C

stdin: Entry `Cn1cc(-c2ccc(Cl)c(C(F)(F)F)c2)c(=O)c(-c2cccs2)c1` : reported melting point = ?
stdout: 166 to 168 °C

stdin: Entry `COc1ccc(C[C@@H](CO)NC(=O)c2cccnc2Br)cc1OC` : reported melting point = ?
stdout: 136 to 138 °C

---

Examples of compounds with documented melting point follow.

Reference set, count: 2
SMILES REPR	melting point
CCOC(=O)CSc1nnc(-c2ccc3c(c2)CCO3)o1	92 to 93 °C
O=C(NO)c1ccc(-c2c3ccccc3nn2Cc2ccccc2)cc1	201 to 203 °C

Next item in the queue.
stdin: Entry `CCN(CC)C(=O)c1nc2cnn(CC)c2nc1-c1ccccc1` : reported melting point = ?
stdout: 111 to 112 °C

---

MEASUREMENT TYPE: melting point

Reference set, count: 5
COMPOUND	melting point
CN1C(=O)C(C(=O)Nc2ccc(Cl)c(Cl)c2)Sc2ccccc21 (stereo unspecified)	191 to 193 °C
CC(Cc1ccc(Br)cc1)C(=O)NC(C)(C)CO (stereo unspecified)	120 to 121 °C
Cc1c(NC(=O)c2ccc(OCc3cccc(F)c3)cc2)ccc2cc(CN3CCCC3)cnc12	151 to 152 °C
Cc1cc(F)ccc1-c1nc(N[C@@H](C)CO)nc2c1ccc(=O)n2-c1ccccc1F	114 to 120 °C
COc1ccnc(CCc2nc3cc(-c4ccc(S(=O)(=O)N5CCC6(CC5)OCCO6)cc4)cnc3[nH]2)c1	121 to 122 °C

stdin: Entry `Cc1ccc2cccc(OCc3c(Cl)ccc([N+](=O)[O-])c3C#N)c2n1` : reported melting point = ?
stdout: 212 to 215 °C
